target: KRAS 4B G12C protein (Homo sapiens, UniProt P01116, G12C); construct: This protein contained 188 amino acids in total, including an N-terminal 6-Histidine tag; made in house; host or cells: E. coli BL21; assay: In vitro covalent adduct formation (CAF) assay by LC-MS; format: binding; conditions: 60 minutes; compound 10 μM, protein 5 μM, 22° C.; percentage of protein bound by the compound
Kindly return rule met if reported CAF (10 minutes/60 minutes) at 10 micromolar: 60 minutes is no lower than 90%; return rule not met if it is lower.

Past entries and their recorded results:
[[record]]
compound = "C=CC(=O)N1CCN(c2nc(OC[C@@H]3CCCN3C)nc3c2CN(Cc2cc(O)ccc2Cl)C3)CC1"
discretelabel = "rule met"

[[record]]
compound = "C=CC(=O)N1CCN(c2nc(OC[C@@H]3CCCN3C)nc3c2CN(Cc2cc(C)ccc2Cl)C3)C[C@@H]1CC#N"
discretelabel = "rule met"

[[record]]
compound = "C=CC(=O)N1CCN(c2nc(OC[C@@H]3CCCN3C)nc3c2CN(C(C)c2cc(F)ccc2C)C3)C[C@@H]1CC#N (stereo partly drawn)"
discretelabel = "rule not met"

[[record]]
compound = "C=CC(=O)N1CCN(c2nc(OC[C@@H]3CCCN3C)nc3c2CN(Cc2cc(O)c(C)cc2Cl)C3)C[C@@H]1CC#N"
discretelabel = "rule met"

[[record]]
compound = "C=C(F)C(=O)N1CCN(c2nc(OC[C@@H]3CCCN3C)nc3c2CN(Cc2nc(NC)ccc2Cl)C3)C[C@@H]1CC#N"
discretelabel = "rule not met"


I'd appreciate it if you could say whether C=CC(=O)N1C2CCCC1CN(c1nc(OC[C@@H]3CCCN3C)nc3c1CN(Cc1cc(O)ccc1Cl)C3)C2 has CAF (10 minutes/60 minutes) at 10 micromolar: 60 minutes at least equal to 90%.
rule not met

Try the compound C=CC(=O)N1CCN(c2nc(OC[C@@H]3CCCO3)nc3c2CN(Cc2c(O)cccc2F)C3)C[C@@H]1CC#N
rule not met

Try the compound C=CC(=O)N1CCN(c2nc(OC[C@@H]3CCCN3C)nc3c2CN(Cc2cc(F)ccc2Cl)C3)[C@@H](C)C1
rule not met

Try the compound C=CC(=O)N1CCN(c2nc(OC[C@@H]3CCCN3C)nc3c2CN(Cc2c(C)cccc2OC(F)F)C3)C[C@@H]1CC#N
rule met

Try the compound C=CC(=O)N1CCN(c2nc(OC[C@@H]3CCCN3C)nc3c2CN(Cc2cc(C)ccc2C)C3)C[C@@H]1CC#N
rule met

Try the compound C=CC(=O)N1CCN(c2nc(OC[C@@H]3CCCN3C)nc3c2CN(Cc2c(F)cccc2OC)C3)C[C@@H]1CC#N
rule met

---

biological target: KRAS 4B G12C protein (Homo sapiens, UniProt P01116, G12C); construct: This protein contained 188 amino acids in total, including an N-terminal 6-Histidine tag; made in house; host or cells: E. coli BL21; test: In vitro covalent adduct formation (CAF) assay by LC-MS; assay type: binding; conditions: 60 minutes; compound 10 μM, protein 5 μM, 22° C.; percentage of protein bound by the compound
Provide the reported CAF (10 minutes/60 minutes) at 10 micromolar: 60 minutes of each item.
The answer should read as a number with its unit following.

Completed entries (count: 6):
[[record]]
compound = "C=CC(=O)N1CCN(c2nc(OC[C@@H]3CCCN3C)nc3c2CN(C2CCc4ccccc42)C3)C[C@@H]1Cn1cccn1 (stereo partly shown)"
targetentity = "KRAS 4B G12C protein (Homo sapiens, UniProt P01116, G12C)"
reportedresult = "2%"

[[record]]
compound = "C=CC(=O)N1CCN(c2nc(OC[C@@H]3CCCN3C)nc3c2CN(Cc2cccc4c2CCO4)C3)C[C@@H]1CC#N"
targetentity = "KRAS 4B G12C protein (Homo sapiens, UniProt P01116, G12C)"
reportedresult = "70%"

[[record]]
compound = "C=CC(=O)N1CCN(c2nc(OC[C@@H]3CCCN3C)nc3c2CN(C2CCc4ccccc42)C3)C[C@@H]1C(N)=O (stereo partly shown)"
targetentity = "KRAS 4B G12C protein (Homo sapiens, UniProt P01116, G12C)"
reportedresult = "19%"

[[record]]
compound = "C=CC(=O)N1CCN(c2nc(OC[C@@H]3CCCN3C)nc3c2CN(Cc2cc(O)ccc2Cl)C3)C2COCC21 (stereo partly shown)"
targetentity = "KRAS 4B G12C protein (Homo sapiens, UniProt P01116, G12C)"
reportedresult = "66%"

[[record]]
compound = "C=CC(=O)N1CCN(c2nc(OC[C@@H]3CCCN3C)nc3c2CN(Cc2cc(Cl)ccc2Cl)C3)[C@@H](C)C1"
targetentity = "KRAS 4B G12C protein (Homo sapiens, UniProt P01116, G12C)"
reportedresult = "22%"

[[record]]
compound = "C=CC(=O)N1CCN(c2nc(OC[C@@H]3CCCN3C)nc3c2CN(Cc2c(F)cccc2F)C3)[C@@H](C)C1"
targetentity = "KRAS 4B G12C protein (Homo sapiens, UniProt P01116, G12C)"
reportedresult = "8%"


Entry C=CC(=O)N1CCN(c2nc(OC[C@@H]3CCCN3C)nc3c2CN(C(C)c2cc(O)ccc2C)C3)[C@@H](C)C1 (stereo partly shown) : reported CAF (10 minutes/60 minutes) at 10 micromolar: 60 minutes = ?
77%
